assay: Metal chelating activity of the compound assessed as Cu2+ chelating activity at 10 uM by fluorescence assay relative to control; assay type: physicochemical
property-measured: Activity (%)

COc1cc(O[C@@H]2O[C@H](CO)[C@@H](O)[C@H](O)[C@H]2O)ccc1O [TACHIOSIDE] : 21.42
CCCCO[C@@H]1O[C@H](CO)[C@@H](O)[C@H](O)[C@H]1O : 18.04
CCCCC[C@H](C)O[C@@H]1O[C@H](CO[C@@H]2OC[C@](O)(CO)[C@H]2O)[C@@H](O)[C@H](O)[C@H]1O : 19.63
C=CCc1ccc(O[C@@H]2O[C@H](CO)[C@@H](O)[C@H](O)[C@H]2O)c(O[C@@H]2O[C@H](CO)[C@@H](O)[C@H](O)[C@H]2O)c1 : 21.8
COc1cc(C[C@@H](O)CO)ccc1O : 25
CC1=CC(=O)CC(C)(C)[C@@]1(O)CC[C@@H](C)O[C@@H]1O[C@H](CO)[C@@H](O)[C@H](O)[C@H]1O : 20.5
OC[C@@]1(O)CO[C@@H](OC[C@H]2O[C@@H](OCc3ccccc3)[C@H](O)[C@@H](O)[C@@H]2O)[C@@H]1O : 19.3
OC[C@H]1O[C@@H](OCc2ccccc2)[C@H](O)[C@@H](O)[C@@H]1O : 22.39
CC(C)O[C@@H]1O[C@H](CO[C@@H]2OC[C@@H](O)[C@H](O)[C@H]2O)[C@@H](O)[C@H](O)[C@H]1O : 21.67
CCCCC[C@H](C)O[C@@H]1O[C@H](CO[C@@H]2OC[C@@H](O)[C@H](O)[C@H]2O)[C@@H](O)[C@H](O)[C@H]1O : 20.58
COc1cc(C[C@@H](O)CO)ccc1O[C@@H]1O[C@H](CO)[C@@H](O)[C@H](O)[C@H]1O : 24.21
C=CCc1ccc(O)c(O)c1 [HYDROXYCHAVICOL] : 20.48
CC(C)O[C@@H]1O[C@H](CO)[C@@H](O)[C@H](O)[C@H]1O : 20.97

====

assay: Antioxidant activity assessed as […] reduction power at 1 uM after 1 hr by cupric ion reducing antioxidant capacity assay; assay type: physicochemical
property-measured: Activity (µM)

CC1=CC(=O)CC(C)(C)[C@@]1(O)CC[C@@H](C)O[C@@H]1O[C@H](CO)[C@@H](O)[C@H](O)[C@H]1O : 0.21
CCCCO[C@@H]1O[C@H](CO)[C@@H](O)[C@H](O)[C@H]1O : 0.18
CC(C)O[C@@H]1O[C@H](CO[C@@H]2OC[C@@H](O)[C@H](O)[C@H]2O)[C@@H](O)[C@H](O)[C@H]1O : 0.27
CCCCC[C@H](C)O[C@@H]1O[C@H](CO[C@@H]2OC[C@@H](O)[C@H](O)[C@H]2O)[C@@H](O)[C@H](O)[C@H]1O : 0.17
CCCCC[C@H](C)O[C@@H]1O[C@H](CO[C@@H]2OC[C@](O)(CO)[C@H]2O)[C@@H](O)[C@H](O)[C@H]1O : 0.34

(1) C=CCc1ccc(O[C@@H]2O[C@H](CO)[C@@H](O)[C@H](O)[C@H]2O)c(O[C@@H]2O[C@H](CO)[C@@H](O)[C@H](O)[C@H]2O)c1
(2) COc1cc(O[C@@H]2O[C@H](CO)[C@@H](O)[C@H](O)[C@H]2O)ccc1O [TACHIOSIDE]
Param pair: 1 , 2 . Output: the one whose Activity is numerically greater. State the label of the item chosen.
1

// provenance: ChEMBL document CHEMBL3352738
